Target: human HP1 CSDα (109–185) (human, UniProt P45973 109-185)
Sequence (P45973 109-185): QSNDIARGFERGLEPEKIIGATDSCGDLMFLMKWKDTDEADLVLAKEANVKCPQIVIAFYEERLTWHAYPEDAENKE
Assay: other fluorescence titration
Measured Endpoint: pKd
Reminder that pKd means the negative base-10 logarithm of the concentration expressed in mol/L.

## Input What value of pKd has been reported for the following binder? SKAGDLLFIEKVPVVVLEDILATKPSIAS (peptide, UniProt Q9QWF0 210-238, looked up) [CAF1 p150(210–238)]
## Output 6.37

// provenance: paper PMC3365711
